Reference for the values: ChEMBL document CHEMBL1122673

organism: Cavia porcellus; test: In vitro evaluation on guinea pig trachea. EC50 which is the molar concentration required to give 50% inhibition of the isoproterenol response (1x10E-6M) was determined.; type: functional; conditions: read-out: ED50 (the source's name)
measure name: EC50 (nM)

COc1ccc(CCNCC(O)COc2cccc3c2[C@@H]2CCCCC[C@]32O)cc1OC (stereo not given in full): 260
CC(C)NCC(O)COc1cccc2c1[C@]1(O)CCCCC[C@H]21 (stereo not given in full): 130
CC(C)(C)NCC(O)COc1cccc2c1[C@@H]1CCCCC[C@]21O (stereo not given in full): 1.26
CCCC(=O)Nc1ccc(OCC(O)CNC(C)C)c2c1[C@H]1CCCCC[C@@H]21 (stereo not given in full): 341
CC(C)NCC(O)COc1cccc2c1[C@@H]1CCCCC[C@]21O (stereo not given in full): 1.3

P: CC(C)(C)NCC(O)COc1cccc2c1[C@]1(O)CCCCC[C@H]21 (stereo not given in full)
Q: CC(C)(C)NCC(O)COc1ccc2c(c1)[C@@H]1CCCCC[C@H]21 (stereo not given in full)
Ask: Exercise: compare P and Q ; which one has the greater EC50? Identify your pick by its label.
Result: Q
(Q: 1380 nM, P: 5.49 nM)

1: CC(C)NCC(O)COc1ccc2ccccc2c1 (stereo not given)
2: CC(C)(C)NCC(O)COc1cccc2c1[C@]1(O)CCCC[C@H]21 (stereo not given in full)
3: COc1ccc(CCNCC(O)COc2cccc3c2[C@]2(O)CCCCC[C@H]32)cc1OC (stereo not given in full)
Ask: Form: Sort by [EC50] Order [ ascending ] Output spec: labels arranged per the requested ranking.
Result: 1, 2, 3
(1: 55 nM, 2: 115 nM, 3: 7010 nM)
